# SYSTEM UNDER TEST: Acetylcholinesterase (Electrophorus electricus)
# ASSAY TEXT: Inhibition of Electrophorus electricus AChE using acetylcholine iodide as substrate incubated for 15 mins by Ellman's method
READOUT: IC50

QUERY: Data request, read-out IC50, for CCN(CC)C(=O)/C=C/c1ccc(OC(=O)N(C)C)c(OC)c1
RESULT: 17.8 µM

QUERY: Moving on to CCN(C)C(=O)Oc1ccc(/C=C/C(=O)N2CCc3ccccc3C2)cc1OC
RESULT: 11.3 µM

QUERY: Same thing, different compound: CCN(C)C(=O)Oc1ccc(/C=C/C(=O)N2CCC(Cc3ccccc3)CC2)cc1
RESULT: 22.1 µM

QUERY: Let us now turn to CCN(Cc1ccccc1)C(=O)/C=C/c1ccc(OC(=O)N(c2ccccc2)c2ccccc2)c(OC)c1
RESULT: 18.9 µM

QUERY: Similarly, COc1cc(/C=C/C(=O)N2CCC(Cc3ccccc3)CC2)ccc1OC(=O)N(C)C ?
RESULT: 18.9 µM

QUERY: Then what about the compound COc1cc(/C=C/C(=O)N2CCc3ccccc3C2)ccc1OC(=O)N(C)OC ?
RESULT: 11.8 µM

QUERY: Entry to check: CCN(CC)C(=O)Oc1ccc(/C=C/C(=O)N2CCC(Cc3ccccc3)CC2)cc1OC
RESULT: 25.6 µM

QUERY: Subsequent entry: CCN(C)C(=O)Oc1ccc(/C=C/C(=O)N2CCN(Cc3ccccc3)CC2)cc1
RESULT: 25.6 µM

QUERY: // same read-out, input: CCN(C)C(=O)Oc1ccc(/C=C/C(=O)N2CCC(Cc3ccccc3)CC2)cc1OC
RESULT: 15.1 µM

QUERY: Moving on to the next compound: COc1cc(/C=C/C(=O)O)ccc1O [FERULATE]
RESULT: > 100 µM

====

# Species: Homo sapiens
# ASSAY TEXT: Selectivity index, ratio of IC50 for recombinant human MAO-A to IC50 for recombinant human MAO-B
Kind request: treat 3 as inclusive, so Ratio IC50 at 3 or higher is Y, anything lower is N.

QUERY: I'd appreciate it if you could say whether COc1cc(/C=C/C(=O)N2CCCCC2)ccc1OC(=O)N(C)C has Ratio IC50 at least equal to 3.
RESULT: N

QUERY: Then this compound: COc1cc(/C=C/C(=O)N2CCc3ccccc3C2)ccc1OC(=O)N(C)OC
RESULT: Y

QUERY: Do the same for CCN(Cc1ccccc1)C(=O)/C=C/c1ccc(OC(=O)N(c2ccccc2)c2ccccc2)c(OC)c1 please
RESULT: N

QUERY: Next up: CCN(CC)C(=O)Oc1ccc(/C=C/C(=O)N2CCc3ccccc3C2)cc1OC
RESULT: N

====

The listing below reports pIC50 for compounds tested on Acetylcholinesterase (Electrophorus electricus, UniProt O42275).
Sequence (O42275 whole entry): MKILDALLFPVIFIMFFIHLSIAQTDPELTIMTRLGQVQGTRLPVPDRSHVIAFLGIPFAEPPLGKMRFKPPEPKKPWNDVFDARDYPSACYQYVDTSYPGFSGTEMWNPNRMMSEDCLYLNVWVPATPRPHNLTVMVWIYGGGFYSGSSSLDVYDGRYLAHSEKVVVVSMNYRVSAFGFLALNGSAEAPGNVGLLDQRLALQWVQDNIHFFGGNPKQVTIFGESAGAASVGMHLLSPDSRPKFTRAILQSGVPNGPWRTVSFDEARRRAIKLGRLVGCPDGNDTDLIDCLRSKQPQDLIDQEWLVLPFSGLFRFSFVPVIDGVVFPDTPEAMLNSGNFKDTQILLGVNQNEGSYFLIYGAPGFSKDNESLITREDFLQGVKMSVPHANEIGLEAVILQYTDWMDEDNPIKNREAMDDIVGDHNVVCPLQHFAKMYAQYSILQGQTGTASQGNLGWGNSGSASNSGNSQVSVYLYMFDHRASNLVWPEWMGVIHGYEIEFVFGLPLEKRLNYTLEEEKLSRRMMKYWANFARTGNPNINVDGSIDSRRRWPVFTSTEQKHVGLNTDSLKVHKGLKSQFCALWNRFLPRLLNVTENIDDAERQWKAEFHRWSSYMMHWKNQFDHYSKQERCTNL
The quantity pIC50 is defined as the negative base-10 logarithm of the molar concentration.

QUERY: # lookup: pIC50 of COc1cc(/C=C/C(=O)N2CCc3ccccc3C2)ccc1OC(=O)N(C)C
RESULT: 4.57

QUERY: Moving on to CCN(CC)C(=O)Oc1ccc(/C=C/C(=O)N2CCN(Cc3ccccc3)CC2)cc1OC
RESULT: 4.72

QUERY: Ok, now CCN(CC)C(=O)Oc1ccc(/C=C/C(=O)N2CCc3ccccc3C2)cc1OC
RESULT: 4.87

QUERY: Next up: COc1cc(/C=C/C(=O)N2CCN(Cc3ccccc3)CC2)ccc1OC(=O)N(c1ccccc1)c1ccccc1
RESULT: 4.05

QUERY: And what about the compound COc1cc(/C=C/C(=O)N2CCCCC2)ccc1OC(=O)N(c1ccccc1)c1ccccc1 ?
RESULT: 4.66

====

# ASSAY TEXT: Toxicity in Zebrafish assessed as mortality at 6.25 ug/ml relative to control
# Parameters: species or system Danio rerio
# EXPERIMENTAL SETUP: in vivo, at 6.25 µg/mL
READOUT: mortality at 6.25 ug/ml (%)
Expressed in %, but write only the number.

QUERY: GET /values?readout=mortality at 6.25 ug/ml&item= CCN(C)C(=O)Oc1ccc(/C=C/C(=O)N2CCc3ccccc3C2)cc1OC
RESULT: 6.7

====

# SYSTEM UNDER TEST: Cholinesterase (Equus caballus)
# Sequence (P81908 whole entry): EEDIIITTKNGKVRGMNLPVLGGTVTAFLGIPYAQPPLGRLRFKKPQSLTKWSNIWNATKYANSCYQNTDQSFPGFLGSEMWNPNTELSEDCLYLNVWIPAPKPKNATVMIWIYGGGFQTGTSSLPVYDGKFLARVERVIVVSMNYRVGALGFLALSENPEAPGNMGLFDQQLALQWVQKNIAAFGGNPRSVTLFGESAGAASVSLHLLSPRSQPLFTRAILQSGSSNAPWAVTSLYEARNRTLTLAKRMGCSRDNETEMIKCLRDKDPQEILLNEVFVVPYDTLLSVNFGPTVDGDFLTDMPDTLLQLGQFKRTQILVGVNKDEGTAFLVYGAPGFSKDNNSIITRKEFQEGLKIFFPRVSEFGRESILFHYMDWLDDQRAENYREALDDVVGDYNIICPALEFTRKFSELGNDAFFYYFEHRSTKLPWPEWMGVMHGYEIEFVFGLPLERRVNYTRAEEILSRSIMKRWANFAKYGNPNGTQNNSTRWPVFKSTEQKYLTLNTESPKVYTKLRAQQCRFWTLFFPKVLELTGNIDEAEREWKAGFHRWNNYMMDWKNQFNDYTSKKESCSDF
# ASSAY TEXT: Inhibition of equine serum BuChE using BTC as substrate after 15 mins by Ellman's method
For each of the compounds below, state its pIC50.
Note on pIC50: it is the negative log10 of concentration, concentration in mol/L.

QUERY: For CCN(Cc1ccccc1)C(=O)/C=C/c1ccc(OC(=O)N(c2ccccc2)c2ccccc2)c(OC)c1 , what is its reported pIC50?
RESULT: 4.61

QUERY: // repeat for COc1cc(/C=C/C(=O)N2CCCCC2)ccc1OC(=O)N(C)C and report
RESULT: 4.58

QUERY: Then CCN(C)C(=O)Oc1ccc(/C=C/C(=O)N(CC)Cc2ccccc2)cc1OC ?
RESULT: 5.82

QUERY: Same read-out for CCN(C)C(=O)Oc1ccc(/C=C/C(=O)N2CCC(Cc3ccccc3)CC2)cc1OC ?
RESULT: 5.41

QUERY: Same read-out for COc1cc(/C=C/C(=O)N2CCc3ccccc3C2)ccc1OC(=O)N(C)OC ?
RESULT: 4.53

QUERY: Another compound to check: CCN(C)C(=O)Oc1ccc(/C=C/C(=O)N2CCc3ccccc3C2)cc1OC
RESULT: 6.04

QUERY: Next entry: CCN(CC)C(=O)/C=C/c1ccc(OC(=O)N(C)C)c(OC)c1
RESULT: 4.72

QUERY: And COc1cc(/C=C/C(=O)N2CCN(Cc3ccccc3)CC2)ccc1OC(=O)N(C)C ?
RESULT: 4.92

QUERY: Input CCN(CC)C(=O)Oc1ccc(/C=C/C(=O)N2CCc3ccccc3C2)cc1OC
RESULT: 5.70

====

# ASSAY TEXT: Permeability of compound by PAMPA-BBB assay
# Assay type: ADME
# EXPERIMENTAL SETUP: read-out: permeability
READOUT: Papp

QUERY: Find the recorded Papp belonging to CCN(C)C(=O)Oc1ccc(/C=C/C(=O)N2CCc3ccccc3C2)cc1OC and report it.
RESULT: 21.4 ×10⁻⁶ cm/s

====

# ASSAY TEXT: Toxicity in AlCl3-induced Zebrafish model of Alzheimer's disease assessed as mortality at 5 ug/ml relative to control
# Design: species or system Danio rerio
# EXPERIMENTAL SETUP: in vivo, at 5 µg/mL
READOUT: mortality at 5 ug/ml
Please state the number and follow it with the unit.

QUERY: mortality at 5 ug/ml lookup needed for CCN(C)C(=O)Oc1ccc(/C=C/C(=O)N2CCc3ccccc3C2)cc1OC , thanks.
RESULT: 0%

====

These compounds were tested on Acetylcholinesterase (Homo sapiens, UniProt P22303); pIC50 is the recorded read-out.
Sequence (P22303 whole entry): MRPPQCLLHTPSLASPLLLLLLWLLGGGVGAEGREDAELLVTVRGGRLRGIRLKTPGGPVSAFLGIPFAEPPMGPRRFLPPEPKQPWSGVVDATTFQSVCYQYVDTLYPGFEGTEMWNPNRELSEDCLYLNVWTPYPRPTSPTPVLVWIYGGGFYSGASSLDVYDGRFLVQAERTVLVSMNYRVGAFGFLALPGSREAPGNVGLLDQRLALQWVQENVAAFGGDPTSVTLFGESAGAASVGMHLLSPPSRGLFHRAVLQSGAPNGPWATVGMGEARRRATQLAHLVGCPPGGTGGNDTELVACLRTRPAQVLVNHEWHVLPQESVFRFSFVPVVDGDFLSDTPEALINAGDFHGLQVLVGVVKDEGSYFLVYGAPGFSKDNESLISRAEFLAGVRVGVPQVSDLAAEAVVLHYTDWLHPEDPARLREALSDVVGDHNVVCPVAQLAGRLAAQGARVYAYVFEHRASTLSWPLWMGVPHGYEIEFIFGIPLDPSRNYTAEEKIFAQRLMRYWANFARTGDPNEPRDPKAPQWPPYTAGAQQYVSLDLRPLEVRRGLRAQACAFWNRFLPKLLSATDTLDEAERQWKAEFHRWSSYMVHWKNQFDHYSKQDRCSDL
Scale: negative log10 of molar concentration, which is what pIC50 denotes.

QUERY: Which pIC50 reading was recorded for the compound CCN(CC)C(=O)Oc1ccc(/C=C/C(=O)N2CCC(Cc3ccccc3)CC2)cc1OC ?
RESULT: 4.71

QUERY: Queued: COc1cc(/C=C/C(=O)N2CCCCC2)ccc1OC(=O)N(c1ccccc1)c1ccccc1
RESULT: 4.57

QUERY: Entry to check: CCN(C)C(=O)Oc1ccc(/C=C/C(=O)N2CCN(Cc3ccccc3)CC2)cc1
RESULT: 4.83

QUERY: Follow-up entry: CCN(Cc1ccccc1)C(=O)/C=C/c1ccc(OC(=O)N(c2ccccc2)c2ccccc2)c(OC)c1
RESULT: 4.55

QUERY: Same question, CCN(CC)C(=O)Oc1ccc(/C=C/C(=O)N2CCc3ccccc3C2)cc1OC this time
RESULT: 4.80

QUERY: Repeat with CCN(CC)C(=O)Oc1ccc(/C=C/C(=O)N2CCN(Cc3ccccc3)CC2)cc1OC
RESULT: 4.77

QUERY: And what about the compound COc1cc(/C=C/C(=O)N2CCC(Cc3ccccc3)CC2)ccc1OC(=O)N(c1ccccc1)c1ccccc1 ?
RESULT: 4.49

QUERY: Next record, please: COc1cc(/C=C/C(=O)N2CCCCC2)ccc1OC(=O)N(C)C
RESULT: 5.04

QUERY: Now try CCN(C)C(=O)Oc1ccc(/C=C/C(=O)N2CCCCC2)cc1OC .
RESULT: 4.97

====

# ASSAY TEXT: Toxicity in AlCl3-induced Zebrafish model of Alzheimer's disease assessed as mortality at 25 ug/ml relative to control
# Parameters: species or system Danio rerio
# EXPERIMENTAL SETUP: in vivo, at 25 µg/mL
READOUT: mortality at 25 ug/ml

QUERY: Quick one: mortality at 25 ug/ml for CCN(C)C(=O)Oc1ccc(/C=C/C(=O)N2CCc3ccccc3C2)cc1OC ?
RESULT: 100%
